B1: glmS ribozyme (parent)
chain: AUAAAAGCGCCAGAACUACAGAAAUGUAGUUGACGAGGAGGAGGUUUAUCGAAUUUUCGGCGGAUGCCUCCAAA

variants of: B1; assay: self-cleavage kobs at 40 uM GlcN6P; higher = faster cleavage; RNA array; details: with glucosamine-6-phosphate
This sample holds only a part of the variants without activity.
RECORDED METRIC: self-cleavage kobs at 40 uM GlcN6P

Identify self-cleavage kobs at 40 uM GlcN6P associated with the variant A36C C58U
< 1e-05 s⁻¹

Identify self-cleavage kobs at 40 uM GlcN6P associated with the variant G35C A39G U49G C50U
< 1e-05 s⁻¹

Identify self-cleavage kobs at 40 uM GlcN6P associated with the variant C16G U30G C61G
< 1e-05 s⁻¹

Identify self-cleavage kobs at 40 uM GlcN6P associated with the variant A6C A64U
< 1e-05 s⁻¹

Identify self-cleavage kobs at 40 uM GlcN6P associated with the variant C11G C16A A33U C58G
< 1e-05 s⁻¹

Identify self-cleavage kobs at 40 uM GlcN6P associated with the variant C11G A14U A39U
< 1e-05 s⁻¹

Identify self-cleavage kobs at 40 uM GlcN6P associated with the variant A42C C61U C71A
< 1e-05 s⁻¹

Identify self-cleavage kobs at 40 uM GlcN6P associated with the variant G29U U30G U54A
9.91e-05 s⁻¹

Identify self-cleavage kobs at 40 uM GlcN6P associated with the variant G9A A48G
< 1e-05 s⁻¹

Identify self-cleavage kobs at 40 uM GlcN6P associated with the variant A42G U55C
0.000832 s⁻¹

Identify self-cleavage kobs at 40 uM GlcN6P associated with the variant A15G U31C
0.000207 s⁻¹

Identify self-cleavage kobs at 40 uM GlcN6P associated with the variant A53G C71G
0.000153 s⁻¹

Identify self-cleavage kobs at 40 uM GlcN6P associated with the variant G9U G41C
< 1e-05 s⁻¹

Identify self-cleavage kobs at 40 uM GlcN6P associated with the variant A6G A12G G66U
< 1e-05 s⁻¹

Identify self-cleavage kobs at 40 uM GlcN6P associated with the variant A6C C8A A48U A52C
< 1e-05 s⁻¹

Identify self-cleavage kobs at 40 uM GlcN6P associated with the variant A14C A36G C71U
< 1e-05 s⁻¹

Identify self-cleavage kobs at 40 uM GlcN6P associated with the variant G40C C71U
0.000198 s⁻¹
